# target_or_test_system: T1, Recombinant human CD4 (R&D Systems, Cat. 10327-CD) (human, UniProt P01730 26-390, limits assumed)
# T1 construct: Soluble analyte in the Octet assay
# protocol_description: BLI Octet, mAb on anti-mouse Fc sensor, CD4 100/50/25 nM, 1:1 global fit;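 also: antibodies loaded at 10 µg/mL, an unrelated mouse-derived antibody served as internal reference control, association and dissociation phases fitted after Savitzky-Golay smoothing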
Collected log10 of Kd values appear next to each entry.
value_type: log10 of Kd (log10 of the value in nM)

INSERT INTO results (binder, obs_value) VALUES
  ('75110_01D24A (antibody, V domains shown, Tested as antibody purified from AlivaMab Mouse hybridoma supernatant (captured by anti-mouse IgG Fc)) VH: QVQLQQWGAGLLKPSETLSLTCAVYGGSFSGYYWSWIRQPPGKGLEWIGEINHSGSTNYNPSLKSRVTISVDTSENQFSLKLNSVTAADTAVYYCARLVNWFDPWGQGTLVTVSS VL: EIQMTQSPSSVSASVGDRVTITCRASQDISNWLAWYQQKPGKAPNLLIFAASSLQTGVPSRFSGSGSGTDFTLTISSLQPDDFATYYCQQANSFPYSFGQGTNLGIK', 1.11),
  ('75110_05E13A (antibody, V domains shown, Tested as antibody purified from AlivaMab Mouse hybridoma supernatant (captured by anti-mouse IgG Fc)) VH: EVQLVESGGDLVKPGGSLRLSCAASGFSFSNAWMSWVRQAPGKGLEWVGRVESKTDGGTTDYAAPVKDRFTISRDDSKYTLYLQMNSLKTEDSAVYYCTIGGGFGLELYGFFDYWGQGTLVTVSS VL: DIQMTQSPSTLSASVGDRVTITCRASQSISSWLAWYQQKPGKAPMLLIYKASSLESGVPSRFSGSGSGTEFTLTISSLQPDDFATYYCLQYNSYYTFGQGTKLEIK', 0.34),
  ('75110_04H17A (antibody, V domains shown, Tested as antibody purified from AlivaMab Mouse hybridoma supernatant (captured by anti-mouse IgG Fc)) VH: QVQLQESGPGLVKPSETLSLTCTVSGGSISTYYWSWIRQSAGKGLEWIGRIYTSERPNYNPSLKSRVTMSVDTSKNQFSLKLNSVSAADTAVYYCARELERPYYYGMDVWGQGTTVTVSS VL: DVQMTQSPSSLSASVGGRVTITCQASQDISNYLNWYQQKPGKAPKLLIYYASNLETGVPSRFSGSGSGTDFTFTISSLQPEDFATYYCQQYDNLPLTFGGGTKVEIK', -0.60),
  ('75110_01G11A (antibody, V domains shown, Tested as antibody purified from AlivaMab Mouse hybridoma supernatant (captured by anti-mouse IgG Fc)) VH: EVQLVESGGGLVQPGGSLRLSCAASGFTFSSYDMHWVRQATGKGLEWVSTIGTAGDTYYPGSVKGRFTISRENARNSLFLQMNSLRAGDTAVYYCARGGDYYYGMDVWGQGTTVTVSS VL: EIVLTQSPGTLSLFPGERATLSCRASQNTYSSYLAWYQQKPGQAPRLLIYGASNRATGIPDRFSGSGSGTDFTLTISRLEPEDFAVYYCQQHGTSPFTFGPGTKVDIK', 0.23),
  ('75110_04K10A (antibody, V domains shown, Tested as antibody purified from AlivaMab Mouse hybridoma supernatant (captured by anti-mouse IgG Fc)) VH: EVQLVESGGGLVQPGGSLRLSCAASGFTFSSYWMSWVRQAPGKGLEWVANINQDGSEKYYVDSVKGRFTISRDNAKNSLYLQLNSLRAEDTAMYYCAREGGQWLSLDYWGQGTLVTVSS VL: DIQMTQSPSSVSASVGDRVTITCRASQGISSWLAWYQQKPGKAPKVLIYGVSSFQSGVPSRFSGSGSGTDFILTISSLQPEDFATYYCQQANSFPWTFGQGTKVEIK', 2.04),
  ('75110_04B08A (antibody, V domains shown, Tested as antibody purified from AlivaMab Mouse hybridoma supernatant (captured by anti-mouse IgG Fc)) VH: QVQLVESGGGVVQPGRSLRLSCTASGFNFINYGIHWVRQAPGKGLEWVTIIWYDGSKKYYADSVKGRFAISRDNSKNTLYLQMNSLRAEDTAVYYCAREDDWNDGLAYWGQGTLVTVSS VL: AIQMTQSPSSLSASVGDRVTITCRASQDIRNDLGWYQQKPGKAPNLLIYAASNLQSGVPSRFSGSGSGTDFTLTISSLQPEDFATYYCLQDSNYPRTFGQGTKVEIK', 1.23),
  ('75110_02E08A (antibody, V domains shown, Tested as antibody purified from AlivaMab Mouse hybridoma supernatant (captured by anti-mouse IgG Fc)) VH: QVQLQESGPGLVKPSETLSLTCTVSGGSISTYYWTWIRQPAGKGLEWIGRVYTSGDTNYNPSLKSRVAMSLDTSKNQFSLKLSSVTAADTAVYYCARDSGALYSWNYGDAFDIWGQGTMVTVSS VL: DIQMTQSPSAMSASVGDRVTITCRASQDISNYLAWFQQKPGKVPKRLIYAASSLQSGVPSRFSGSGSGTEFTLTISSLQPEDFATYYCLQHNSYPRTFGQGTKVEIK', 0.34),
  ('75110_03D16A (antibody, V domains shown, Tested as antibody purified from AlivaMab Mouse hybridoma supernatant (captured by anti-mouse IgG Fc)) VH: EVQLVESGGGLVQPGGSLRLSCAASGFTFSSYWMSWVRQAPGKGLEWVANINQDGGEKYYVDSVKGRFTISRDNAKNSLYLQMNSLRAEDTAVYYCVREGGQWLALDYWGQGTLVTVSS VL: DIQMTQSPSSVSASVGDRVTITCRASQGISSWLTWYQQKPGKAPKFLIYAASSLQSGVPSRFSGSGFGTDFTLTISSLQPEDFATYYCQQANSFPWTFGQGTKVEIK', 1.00),
  ('75110_01A06A (antibody, V domains shown, Tested as antibody purified from AlivaMab Mouse hybridoma supernatant (captured by anti-mouse IgG Fc)) VH: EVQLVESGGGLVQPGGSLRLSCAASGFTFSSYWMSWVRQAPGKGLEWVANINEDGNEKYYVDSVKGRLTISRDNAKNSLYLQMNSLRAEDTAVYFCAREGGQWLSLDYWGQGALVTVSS VL: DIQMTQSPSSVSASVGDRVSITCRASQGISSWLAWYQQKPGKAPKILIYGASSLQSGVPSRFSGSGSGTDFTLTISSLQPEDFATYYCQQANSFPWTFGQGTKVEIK', 1.15);
